Hello, the source for this data is patent US20240076343A1, in case you need it.

EXPERIMENTAL TARGET: T1, human PD-1 on Jurkat cells (Jurkat+hPD-1) (human, UniProt Q15116 21-185)
T1 construct: extracellular domain and a portion of the transmembrane domain, stably expressed on Jurkat cells
T1 sequence (Q15116 21-185 limits assumed): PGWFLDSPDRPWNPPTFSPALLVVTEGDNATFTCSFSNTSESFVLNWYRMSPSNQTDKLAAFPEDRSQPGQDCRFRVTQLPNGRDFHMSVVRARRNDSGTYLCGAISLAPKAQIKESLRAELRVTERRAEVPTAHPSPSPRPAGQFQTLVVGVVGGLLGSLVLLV
EXPERIMENT NOTES: flow cytometry on Jurkat cells expressing hPD-1
RESULT TYPE: EC50 (nM)
Numbers only here, please. The scale is nM.

[[record]]
binder = "H7-632-hIgG1-LAGA (antibody, V domains shown) VH: EVQLLESGGGLVQPGGSLRLSCAASGFTFKSYAMHWVRQAPGKGLEWVSAIVYSGGSTYYADSVKGRFTISRDNSKNTLYLQMNSLRAEDTAVYYCAKYDRASYFYDAMDVWGQGTTVTVSS VL: EIVLTQSPGTLSLSPGERATLSCRASQSISSSFLAWYQQKPGQAPRLLIYDASDRATGIPDRFSGSGSGTDFTLTISRLEPEDFAVYYCQQYYDWPPLSFGGGTKVEIKR"
value = 0.115


Inquiry: Let me know recorded EC50 for G12-hIgG4 (antibody, V domains shown) VH: DSLVESGGGLVQPGGSLRLSCAASGFTFDISAMSWVRQAPGKGLEWVSTISGSAYSTYYADSVKGRFTISRDNSKSTLYLQMNSLRAEDTAVYYCAREIFSDYWGLGTLVTVSS VL: QSVLTQPPSASGTPGQRVTISCSGSTSNIGRESVYWYQQLPGTAPKLLIYLNSQRPSGVPDRFSGSKSGTSASLAISGLQSEDVADYYCGTWDDSLNGWVFGGGTKLTVLG , thanks.
Reply text: 5.36
